- SUBJECT OF TEST: PI3Kdelta (Homo sapiens (Human))
- Sequence (O00329 whole entry, canonical isoform): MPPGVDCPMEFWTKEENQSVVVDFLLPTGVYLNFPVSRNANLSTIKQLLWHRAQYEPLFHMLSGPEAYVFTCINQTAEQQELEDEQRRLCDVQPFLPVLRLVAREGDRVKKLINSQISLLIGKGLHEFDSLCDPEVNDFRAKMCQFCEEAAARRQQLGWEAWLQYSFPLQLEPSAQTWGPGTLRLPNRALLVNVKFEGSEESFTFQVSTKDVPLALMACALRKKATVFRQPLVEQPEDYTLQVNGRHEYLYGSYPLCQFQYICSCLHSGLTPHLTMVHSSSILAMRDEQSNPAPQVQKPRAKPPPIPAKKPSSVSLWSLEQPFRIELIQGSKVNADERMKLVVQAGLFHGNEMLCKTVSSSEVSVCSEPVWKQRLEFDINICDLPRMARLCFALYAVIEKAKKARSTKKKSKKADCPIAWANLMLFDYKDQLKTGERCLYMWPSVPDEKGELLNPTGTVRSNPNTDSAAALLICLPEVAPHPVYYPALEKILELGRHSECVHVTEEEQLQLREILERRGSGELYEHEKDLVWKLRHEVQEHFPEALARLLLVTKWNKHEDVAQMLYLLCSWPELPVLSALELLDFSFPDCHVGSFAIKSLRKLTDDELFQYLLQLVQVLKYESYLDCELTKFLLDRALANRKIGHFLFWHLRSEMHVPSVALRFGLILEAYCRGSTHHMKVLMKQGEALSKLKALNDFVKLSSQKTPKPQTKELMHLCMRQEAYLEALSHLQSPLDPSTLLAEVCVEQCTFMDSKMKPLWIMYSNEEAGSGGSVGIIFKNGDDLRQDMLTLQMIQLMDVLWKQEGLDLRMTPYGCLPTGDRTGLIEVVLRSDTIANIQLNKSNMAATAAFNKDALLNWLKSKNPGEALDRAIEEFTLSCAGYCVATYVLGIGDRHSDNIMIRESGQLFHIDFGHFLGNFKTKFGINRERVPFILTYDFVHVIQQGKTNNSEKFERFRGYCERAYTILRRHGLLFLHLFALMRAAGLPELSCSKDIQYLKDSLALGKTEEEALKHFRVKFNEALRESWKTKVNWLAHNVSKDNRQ
- Sequence (P27986 whole entry partner, canonical isoform): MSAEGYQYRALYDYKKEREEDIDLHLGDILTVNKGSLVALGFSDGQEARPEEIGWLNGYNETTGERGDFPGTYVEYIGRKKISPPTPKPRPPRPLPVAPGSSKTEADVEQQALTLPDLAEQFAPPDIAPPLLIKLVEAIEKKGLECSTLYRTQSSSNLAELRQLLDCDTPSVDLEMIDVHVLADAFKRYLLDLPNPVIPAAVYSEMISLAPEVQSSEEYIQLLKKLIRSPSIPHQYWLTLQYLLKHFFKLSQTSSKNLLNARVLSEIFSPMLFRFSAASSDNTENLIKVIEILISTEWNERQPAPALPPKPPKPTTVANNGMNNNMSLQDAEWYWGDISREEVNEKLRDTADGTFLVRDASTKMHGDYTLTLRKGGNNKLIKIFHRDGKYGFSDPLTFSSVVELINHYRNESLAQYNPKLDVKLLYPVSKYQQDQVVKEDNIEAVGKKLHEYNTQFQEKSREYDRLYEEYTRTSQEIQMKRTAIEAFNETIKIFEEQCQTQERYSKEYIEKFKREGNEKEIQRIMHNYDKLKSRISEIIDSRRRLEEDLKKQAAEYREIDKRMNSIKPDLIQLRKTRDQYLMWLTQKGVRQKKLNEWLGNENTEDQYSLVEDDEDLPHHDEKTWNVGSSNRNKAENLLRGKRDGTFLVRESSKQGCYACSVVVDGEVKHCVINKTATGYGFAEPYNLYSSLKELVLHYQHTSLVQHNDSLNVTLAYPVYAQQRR
- METHOD SUMMARY: HTRF PI3K biochemical assay, delta isoform
- CONDITION DETAILS: 0.3 nM enzyme, 100 uM ATP, 50 uM PIP2; form screened (neutral or TFA salt)
RECORDED METRIC: IC50 (nM)
State just the number; it will be interpreted in nM.

### Prompt Check the records and state IC50 for Cc1ncc(-c2nc3c(-c4cnc5c(c4)C(C)(NCC(C)(C)F)C(=O)N5)ncnc3n2C)cn1 (single isomer, unassigned) [Compound 2-60]
### Response 133

### Prompt Using the record for CCn1c(-c2cnc(C)nc2)nc2c(-c3ccc4c(c3)C(C)(CC(C)C)OC(=O)N4)ncnc21 (single isomer, unassigned) [Compound 4-4] , state its measured IC50.
### Response 4

### Prompt Supply IC50 value. Item: Cc1ncc(-c2nc3c(-c4ccc5c(c4)C(C)(NCC(C)(F)F)C(=O)N5)ncnc3n2C)cn1 (single isomer, unassigned) [Compound 2-70]
### Response 4

### Prompt Please give the documented IC50 of CCn1c(-c2cnc(C)nc2)nc2c(-c3ccc4c(c3)C(C)(OCC(C)(C)F)C(=O)N4)ncnc21 (single isomer, unassigned) [Compound 2-55]
### Response 200

### Prompt Give the measured IC50 for CCn1c(-c2cnc(C)nc2)nc2c(-c3ccc4c(c3)C3(CCCN3S(C)(=O)=O)C(=O)N4C)ncnc21 (single isomer, unassigned) [Compound 3-23]
### Response 6

### Prompt # return recorded IC50 for input Cc1ncc(-c2nc3c(-c4ccc5c(c4)C4(CCCN4C(=O)C4CC4)C(=O)N5CC(C)(C)O)ncnc3n2C)cn1 (single isomer, unassigned)
### Response 2.5

###

- SUBJECT OF TEST: UniProt:P42336
- Sequence (P42336 whole entry, canonical isoform): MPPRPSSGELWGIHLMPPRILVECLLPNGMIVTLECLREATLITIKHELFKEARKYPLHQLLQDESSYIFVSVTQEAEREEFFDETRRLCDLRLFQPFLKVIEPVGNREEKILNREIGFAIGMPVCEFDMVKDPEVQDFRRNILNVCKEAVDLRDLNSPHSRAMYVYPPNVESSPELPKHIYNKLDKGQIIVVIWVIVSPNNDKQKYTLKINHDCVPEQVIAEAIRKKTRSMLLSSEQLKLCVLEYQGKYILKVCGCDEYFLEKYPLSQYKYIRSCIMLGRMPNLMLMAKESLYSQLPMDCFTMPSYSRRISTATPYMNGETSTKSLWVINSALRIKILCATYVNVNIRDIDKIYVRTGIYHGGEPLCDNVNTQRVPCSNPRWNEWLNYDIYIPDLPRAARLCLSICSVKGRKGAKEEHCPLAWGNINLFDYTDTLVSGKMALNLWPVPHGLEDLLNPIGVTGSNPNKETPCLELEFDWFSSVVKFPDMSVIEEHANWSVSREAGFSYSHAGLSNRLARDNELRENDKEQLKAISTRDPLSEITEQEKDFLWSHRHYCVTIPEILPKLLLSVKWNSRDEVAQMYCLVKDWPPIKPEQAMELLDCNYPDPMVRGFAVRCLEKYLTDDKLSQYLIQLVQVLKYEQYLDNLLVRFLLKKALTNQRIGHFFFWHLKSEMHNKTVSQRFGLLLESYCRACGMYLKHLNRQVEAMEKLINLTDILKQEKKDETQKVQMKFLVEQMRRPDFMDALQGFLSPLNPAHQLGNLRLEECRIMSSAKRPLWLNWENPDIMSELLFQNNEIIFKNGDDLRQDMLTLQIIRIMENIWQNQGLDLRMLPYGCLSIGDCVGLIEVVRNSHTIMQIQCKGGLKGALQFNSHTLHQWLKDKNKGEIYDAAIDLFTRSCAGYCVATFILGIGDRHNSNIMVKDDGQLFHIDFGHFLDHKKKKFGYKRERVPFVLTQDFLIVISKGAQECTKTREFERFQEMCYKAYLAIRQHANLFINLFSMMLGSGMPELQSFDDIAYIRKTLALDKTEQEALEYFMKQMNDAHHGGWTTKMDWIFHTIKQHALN
- Sequence (P27986 whole entry partner, canonical isoform): as the sequence (P27986 whole entry partner, canonical isoform) above
- METHOD SUMMARY: HTRF PI3K biochemical assay, alpha isoform (selectivity versus delta)
- CONDITION DETAILS: ratio PI3K-alpha IC50 value/PI3K-delta IC50 value
RECORDED METRIC: Relative Selectivity versus PI3Kalpha

### Prompt Report measured Relative Selectivity versus PI3Kalpha; entry is CCn1c(-c2cnc(C)nc2)nc2c(-c3ccc4c(c3)C(C)(NCC3CC3)C(=O)N4)ncnc21 (single isomer, unassigned) [Compound 2-34]
### Response >10

### Prompt Answer with the recorded Relative Selectivity versus PI3Kalpha for the molecule listed here: Cc1ncc(-c2nc3c(-c4ccc5c(c4)C4(CCCN4C(=O)C4CC4)C(=O)N5CCN4CCOCC4)ncnc3n2C)cn1 (single isomer, unassigned)
### Response >10

### Prompt Write down Relative Selectivity versus PI3Kalpha measured for item CCn1c(-c2cnc(C)nc2)nc2c(-c3ccc4c(c3)C(C)(CC3(C)COC3)C(=O)N4)ncnc21 (single isomer, unassigned) [Compound 1-5]
### Response 3

### Prompt Quickly give me recorded Relative Selectivity versus PI3Kalpha for CCn1c(-c2cnc(C)nc2)nc2c(-c3ccc4c(c3)C(C)(N[C@@H](C)C3CCC3)C(=O)N4)ncnc21 (mixture of isomers)
### Response >10

### Prompt Identify measured Relative Selectivity versus PI3Kalpha associated with CCn1c(-c2cnc(C)nc2)nc2c(-c3ccc4c(c3)C3(CCCN3S(C)(=O)=O)C(=O)N4C)ncnc21 (single isomer, unassigned) [Compound 3-24]
### Response >10

### Prompt State, in one line, measured Relative Selectivity versus PI3Kalpha of CCn1c(-c2cnc(C)nc2)nc2c(-c3ccc4c(c3)C(C)(Cc3ccccc3)CN4C)ncnc21 (centres unmarked)
### Response >10

### Prompt Please indicate Relative Selectivity versus PI3Kalpha recorded for Cc1ncc(-c2nc3c(-c4ccc5c(c4)C(C)(NCC(C)(F)F)C(=O)N5)ncnc3n2C)cn1 (single isomer, unassigned) [Compound 2-70]
### Response >10

### Prompt Consider the molecule CCn1c(-c2cnc(C)nc2)nc2c(-c3ccc4c(c3)C(C)(OCC(C)(C)F)C(=O)N4)ncnc21 (single isomer, unassigned) [Compound 2-56] and give its recorded Relative Selectivity versus PI3Kalpha.
### Response >10

### Prompt Please supply the value of reported Relative Selectivity versus PI3Kalpha for the item CCn1c(-c2cnc(C)nc2)nc2c(-c3ccc4c(c3)C(C)(CC(C)C)OC(=O)N4)ncnc21 (single isomer, unassigned) [Compound 4-3]
### Response 6

### Prompt # return recorded Relative Selectivity versus PI3Kalpha for entry Cc1ncc(-c2nc3c(-c4ccc5c(c4)C4(CCCN4C(=O)C4CC4)C(=O)N5CCO)ncnc3n2C)cn1 (single isomer, unassigned)
### Response >10

### Prompt // fetch Relative Selectivity versus PI3Kalpha given entry CCn1c(-c2cnc(C)nc2)nc2c(-c3ccc4c(c3)C(C)(NCC(C)(C)C#N)C(=O)N4)ncnc21 (single isomer, unassigned) [Compound 2-40]
### Response >10

### Prompt Quickly give me recorded Relative Selectivity versus PI3Kalpha for CCn1c(-c2cnc(C)nc2)nc2c(-c3ccc4c(c3)C(C)(N3C[C@@H](F)[C@H](F)C3)C(=O)N4)ncnc21 (single isomer, unassigned) [Compound 2-61]
### Response >10

### Prompt Please indicate Relative Selectivity versus PI3Kalpha recorded for CCn1c(-c2cnc(C)nc2)nc2c(-c3cnc4c(c3)C(C)(N3CC(C)(C#N)C3)C(=O)N4)ncnc21 (single isomer, unassigned) [Compound 2-53]
### Response >10

### Prompt Please list Relative Selectivity versus PI3Kalpha recorded for the molecule CCn1c(-c2cnc(C)nc2)nc2c(-c3ccc4c(c3)C(C)(N3CC(OC)C3)C(=O)N4)ncnc21 (single isomer, unassigned) [Compound 2-78]
### Response >10

### Prompt Specify Relative Selectivity versus PI3Kalpha for CCn1c(-c2cnc(C)nc2)nc2c(-c3ccc4c(c3)C(C)(Cc3ccccc3)C(=O)N4C)ncnc21 (single isomer, unassigned) [Compound 1-21] and stop.
### Response >10

### Prompt Given the molecule CCN1CCCC12C(=O)Nc1ccc(-c3ncnc4c3nc(-c3cnc(C)nc3)n4C)cc12 (single isomer, unassigned) [Compound 3-29] , write its reported Relative Selectivity versus PI3Kalpha.
### Response >10

### Prompt Identify measured Relative Selectivity versus PI3Kalpha associated with CCn1ncc(-c2nc3c(-c4ccc5c(c4)C(C)(CC4CC4)C(=O)N5)ncnc3n2CC)c1C (single isomer, unassigned)
### Response >10

### Prompt Specify measured Relative Selectivity versus PI3Kalpha for CCn1c(-c2cnc(C)nc2)nc2c(-c3ccc4c(c3)C(C)(CC(C)C)NS4(=O)=O)ncnc21 (single isomer, unassigned) [Compound 4-5] .
### Response >10

### Prompt Specify reported Relative Selectivity versus PI3Kalpha for the molecule shown: CCn1c(-c2cnc(C)nc2)nc2c(-c3ccc4c(c3)C(C)(N3CC(C)(F)C3)C(=O)N4)ncnc21 (single isomer, unassigned) [Compound 2-63]
### Response >10

### Prompt Input CCn1c(-c2cnc(C)nc2)nc2c(-c3ccc4c(c3)C3(CCN(C(=O)C5CC5)C3)C(=O)N4)ncnc21 (single isomer, unassigned) [Compound 3-6] , output reported Relative Selectivity versus PI3Kalpha.
### Response >10

### Prompt Tell me Relative Selectivity versus PI3Kalpha reported for CCn1c(-c2cnc(C)nc2)nc2c(-c3ccc4c(c3)C(C)(N3C[C@@H](C)O[C@@H](C)C3)C(=O)N4)ncnc21 (single isomer, unassigned) [Compound 2-3]
### Response 4

### Prompt Specify measured Relative Selectivity versus PI3Kalpha for CCn1c(-c2cnc(C)nc2)nc2c(-c3ccc4c(c3)C(Cc3ccccc3)OC(=O)N4)ncnc21 (single isomer, unassigned) [Compound 4-1] .
### Response 2

### Prompt Give the reported Relative Selectivity versus PI3Kalpha for this molecule. CCn1c(-c2cnc(C)nc2)nc2c(-c3ccc4c(c3)C(C)(NC[C@@H]3CCCO3)C(=O)N4)ncnc21 (mixture of isomers)
### Response >10
